The following molecules are shown together with reported IC50 values.
# study.target: UniProt:P00591
# protocol.details: Inhibition of pancreatic lipase (titrimetric measurement of oleic acid released from triolein)
# Assay type: biochemical, Schwein
# test.parameters: substrate triolein emulsion, pH 8, NaOH consumption over 10 min, 1-3 µg lipase; concentration giving half-maximal inhibition of lipase activity; read-out: IC₅₀ (converted)
value.kind: IC50 (nM)

CCCCCCCCCCCCCCCCC[C@@H](C[C@@H]1OC(=O)[C@H]1CC)OC(=O)C1(C(N)=O)CCCC1	230
CCCCCCCCCCCCCCCCC[C@@H](C[C@@H]1OC(=O)[C@H]1CC)OC(=O)[C@@H]1CCC(=O)N1 [Beispiel 78d]	103
CCCCCCCCCCCCCCCCC[C@@H](C[C@@H]1OC(=O)[C@H]1CC)OC(=O)C(CCC)C(N)=O (some centres unmarked)	100
CCCCCCCCCCCCCCCCC[C@@H](C[C@@H]1OC(=O)[C@H]1CC)OC(=O)CC(N)=O [Beispiel 10b]	89.8
CCCCCCCCCCC[C@@H](C[C@@H]1OC(=O)[C@H]1CCCCCC)OC(=O)C(C)C(N)=O (mixture of isomers)	926
CCCCCCCCCCCCCCCCC[C@@H](C[C@@H]1OC(=O)[C@H]1CC)OC(=O)CC(=O)NC [Beispiel 10c]	208
CCCCCCCCCCCCCCCCC[C@@H](C[C@@H]1OC(=O)[C@H]1CC)OC(=O)CCC(N)=O [Beispiel 10f]	664
CCCCCCCCCCC[C@@H](C[C@H]1OC(=O)[C@@H]1Cc1ccccc1)OC(=O)C(C(N)=O)C(C)C (single isomer, unassigned)	162
CCCCCCCCCCCCCCCCC[C@@H](C[C@@H]1OC(=O)[C@H]1CC)OC(=O)C1(C(N)=O)CCCCC1	299
CCCCCCCCCCCCCCCCC[C@@H](C[C@@H]1OC(=O)[C@H]1CC)OC(=O)[C@H]1CCC(=O)N1 [Beispiel 78c]	567
CCCCCCCCCCC[C@@H](C[C@@H]1OC(=O)[C@H]1CCCCCC)OC(=O)C(CC)C(N)=O (some centres unmarked)	342
CCCCCCCCCCC[C@@H](C[C@@H]1OC(=O)[C@H]1CCCCCC)OC(=O)C(Cc1ccccc1)C(N)=O (some centres unmarked)	88.7
CCCCC/C=C\C/C=C\CCCCCCC[C@@H](C[C@@H]1OC(=O)[C@H]1CC)OC(=O)C(C(N)=O)C(C)C (single isomer, unassigned) [Beispiel 2g2]	25.7
CCCCCCCCCCCCCCCCC[C@@H](C[C@@H]1OC(=O)[C@H]1CC)OC(=O)C(C(N)=O)C(C)(C)C (single isomer, unassigned)	64.9

* * *

The following compounds are shown together with reported IC50 values.
# study.target: Schweinepankreaslipase (Sus scrofa, UniProt P00591)
# Sequence (P00591 1-450): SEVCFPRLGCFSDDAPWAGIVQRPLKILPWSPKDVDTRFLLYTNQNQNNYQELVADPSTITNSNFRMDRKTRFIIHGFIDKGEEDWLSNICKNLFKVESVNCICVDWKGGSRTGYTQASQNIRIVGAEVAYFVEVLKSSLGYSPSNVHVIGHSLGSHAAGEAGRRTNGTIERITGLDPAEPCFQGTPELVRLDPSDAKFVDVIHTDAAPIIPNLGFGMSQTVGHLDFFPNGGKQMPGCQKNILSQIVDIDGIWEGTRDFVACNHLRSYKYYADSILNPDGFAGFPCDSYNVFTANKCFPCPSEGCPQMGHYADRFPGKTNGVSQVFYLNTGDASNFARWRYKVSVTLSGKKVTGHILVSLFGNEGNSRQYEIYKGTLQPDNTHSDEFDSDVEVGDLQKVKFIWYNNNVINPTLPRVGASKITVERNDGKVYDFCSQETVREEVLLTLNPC
# protocol.details: Inhibition of pancreatic lipase (titrimetric measurement of oleic acid released from triolein)
# Assay type: biochemical, Schwein
# test.parameters: substrate triolein emulsion, pH 8, NaOH consumption over 10 min, 1-3 µg lipase; concentration giving half-maximal inhibition of lipase activity; read-out: IC₅₀ (converted)
value.kind: IC50 (nM)

CCCCCCCCCCC[C@@H](C[C@@H]1OC(=O)[C@H]1CCCCCC)OC(=O)CCSCCC(N)=O	701
CCCCCCCCCCC[C@@H](C[C@@H]1OC(=O)[C@H]1CCCCCC)OC(=O)C1(C(N)=O)CCCCC1	579
CCCCCCCCCCC[C@@H](CC1OC(=O)C1SCCCCC)OC(=O)C(C(N)=O)C(C)C (some centres unmarked)	112
CCCCCCCCCCC[C@@H](C[C@@H]1OC(=O)[C@H]1CCCCCC)OC(=O)C(C)(C)C(N)=O	4490
CCCCCCCCCCC[C@@H](C[C@@H]1OC(=O)[C@H]1CCCCCC)OC(=O)C(CC)(CC)C(N)=O	1570
